- Protocol text: Pharmacokinetic testing in mice
- Format: in vivo
- Measurement conditions: male, mouse, 10 mg/kg; ICR mice, oral administration (10 mg/mL), plasma; read-out: Half-life period T½ (converted)
Reported half-life by item:

| Compound | half-life (h) |
| --- | --- |
| CCS(=O)(=O)Nc1ccc(C(=O)Nc2cc3c(c(N4CCC(F)(F)CC4)c2)OCC3)c(N2CCC3(CC2)CC3)c1 [Example 1] | 7.36 |
| O=C(Nc1cc2c(c(N3CCC(F)(F)CC3)c1)OCC2)c1ccc(NS(=O)(=O)CCO)cc1N1CCC2(CC1)CC2 [Example 29] | 1.24 |
| CCS(=O)(=O)Nc1ccc(C(=O)Nc2cc(N3CCC(F)(F)CC3)c3nn(C)cc3c2)c(N2CCC3(CC2)CC3)c1 [Example 18] | 5.2 |

----------
- Protocol text: Pharmacokinetic testing in mice
- Assay type: in vivo
- Measurement conditions: male, mouse, 10 mg/kg; ICR mice, oral administration (10 mg/mL), plasma; read-out: Plasma concentration Cmax

| Chemical string | Cmax / ng/mL |
| --- | --- |
| CCS(=O)(=O)Nc1ccc(C(=O)Nc2cc(N3CCC(F)(F)CC3)c3nn(C)cc3c2)c(N2CCC3(CC2)CC3)c1 | 3030 |
| CCS(=O)(=O)Nc1ccc(C(=O)Nc2cc3c(c(N4CCC(F)(F)CC4)c2)OCC3)c(N2CCC3(CC2)CC3)c1 | 12400 |
| O=C(Nc1cc2c(c(N3CCC(F)(F)CC3)c1)OCC2)c1ccc(NS(=O)(=O)CCO)cc1N1CCC2(CC1)CC2 | 6960 |

----------
Reported IC50 by item:
- Test system: HT-29 cells
- Protocol text: Inhibition on HT-29 cell proliferation (CellTiter-Glo)
- Assay type: cell-based
- Measurement conditions: Homo sapiens, HT-29 cells (TP53 R273H mutation), 120 hours
Experimental readout: IC50 (nM)

| Chemical string | Experimental readout | Unit annotation | Number |
| --- | --- | --- | --- |
| CCS(=O)(=O)Nc1ccc(C(=O)Nc2cc3c(c(N4CCC(F)(F)CC4)c2)C(=O)NC3)c(N2CCC3(CC2)CC3)c1 | IC50 | nM | 5.8 |
| CCS(=O)(=O)Nc1ccc(C(=O)Nc2cc3c(c(N4CCC(F)(F)CC4)c2)OCC3)c(N2CCC3(CC2)CC3)c1 | IC50 | nM | 2.4 |
| CCS(=O)(=O)Nc1ccc(C(=O)Nc2cc3c(c(N4CCC(F)(F)CC4)c2)OCO3)c(N2CCC3(CC2)CC3)c1 | IC50 | nM | 7.3 |
| CCS(=O)(=O)Nc1ccc(C(=O)Nc2cc(N3CCC(F)(F)CC3)c3cnn(C)c3c2)c(N2CCC3(CC2)CC3)c1 | IC50 | nM | 35.7 |

----------
- Test system: HT-29 cells
- Protocol text: Inhibition on HT-29 cell proliferation (CellTiter-Glo)
- Type: cell-based
- Measurement conditions: Homo sapiens, HT-29 cells (TP53 R273H mutation), 120 hours
pIC50: −log10 of the molar value.
Reported pIC50 by item:

| Chemical string | pIC50 |
| --- | --- |
| CCS(=O)(=O)Nc1ccc(C(=O)Nc2cc(N3CCC(F)(F)CC3)c3[nH]ncc3c2)c(N2CCC3(CC2)CC3)c1 | 7.86 |
| CCS(=O)(=O)Nc1ccc(C(=O)Nc2cc3c(c(N4CCC(F)(F)CC4)c2)C(=O)N(C)C3)c(N2CCC3(CC2)CC3)c1 | 8.41 |
| CCS(=O)(=O)Nc1ccc(C(=O)Nc2cc3c(c(N4CC(F)(F)C4)c2)OCC3)c(N2CCC3(CC2)CC3)c1 | 7.97 |
| O=C(Nc1cc2c(c(N3CCC(F)(F)CC3)c1)OCC2)c1ccc(NS(=O)(=O)C2CC2)cc1N1CCC2(CC1)CC2 | 8.11 |

Numbers sourced from patent US20260256763A1.
